- Experimental protocol: Inhibition of cell proliferation of rat RN 22 cells incubated for 6 days by Real-time Glow MT assay
- Assay type: functional, cell-based
- Stated conditions: RN 22, 144 h
Measurement label: pIC50
Answers are plain numbers, as −log10 of the molar value.

Inquiry: Dear colleague, please send me the reported pIC50 for Cc1cc(CN)cc(C)c1-c1ncn(C)c1-c1ccnc2cc(F)ccc12 when you can.
Reply text: 4.89
